biological target: P. falciparum apicoplast DNA polymerase (Pf-apPOL) (Plasmodium falciparum, UniProt Q8ILY1); experiment: Fluorescence-based high-throughput DNA polymerase assay (molecular beacon), primary screen and dose-response; type: biochemical; conditions: DRC-1; 10'; concentration 5
Sequence (Q8ILY1 entry or part of it): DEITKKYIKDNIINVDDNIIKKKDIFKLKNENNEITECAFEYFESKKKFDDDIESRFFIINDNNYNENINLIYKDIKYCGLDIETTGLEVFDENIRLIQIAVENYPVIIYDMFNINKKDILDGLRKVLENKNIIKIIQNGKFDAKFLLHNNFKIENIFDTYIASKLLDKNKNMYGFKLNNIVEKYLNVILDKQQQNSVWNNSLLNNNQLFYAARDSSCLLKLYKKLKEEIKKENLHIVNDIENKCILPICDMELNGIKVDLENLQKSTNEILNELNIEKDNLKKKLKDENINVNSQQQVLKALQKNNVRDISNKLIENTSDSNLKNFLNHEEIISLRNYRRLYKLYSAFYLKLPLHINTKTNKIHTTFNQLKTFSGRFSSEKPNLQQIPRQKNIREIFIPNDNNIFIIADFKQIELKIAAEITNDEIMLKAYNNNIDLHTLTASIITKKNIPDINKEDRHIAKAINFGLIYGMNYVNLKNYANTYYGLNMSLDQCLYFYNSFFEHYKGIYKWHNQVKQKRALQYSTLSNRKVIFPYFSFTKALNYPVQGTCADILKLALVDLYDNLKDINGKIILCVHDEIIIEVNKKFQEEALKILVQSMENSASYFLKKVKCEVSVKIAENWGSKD
In this section, each of the molecules is paired with its reported % inhibition Apo pol 10'.
observation_type: % inhibition Apo pol 10'

molecule="COc1cccc(C(=O)N2CCc3c(nc4cc(-c5ccccc5)[nH]n4c3=O)C2)c1OC [Molecule 22]" recorded_value=25%
molecule="Cc1ccc(C)c(CSc2nc(C3CCCCC3)c(C#N)c(=O)[nH]2)c1 [Molecule 6]" recorded_value=38.2184%
molecule="Cc1ccc(NC(=O)Cn2ccc3c(=O)[nH]ccc32)cc1F [Molecule 48, O=C(Cn1ccc2c1cc[nH]c2=O)Nc1ccc(c(c1)F)C]" recorded_value=4.695%
molecule="O=C(Nc1cccc(C(=O)Nc2ccc(S(=O)(=O)[O-])c3cc(S(=O)(=O)[O-])cc(S(=O)(=O)[O-])c23)c1)Nc1cccc(C(=O)Nc2ccc(S(=O)(=O)[O-])c3cc(S(=O)(=O)[O-])cc(S(=O)(=O)[O-])c23)c1.[Na+].[Na+].[Na+].[Na+].[Na+].[Na+] [Molecule 39]" recorded_value=43.2303%
molecule="O=C1N=C(Nc2cccc(Cl)c2Cl)S/C1=C\\c1ccco1 [Molecule 3, O=C1N=C(S/C/1=C\\c1ccco1)Nc1cccc(c1Cl)Cl]" recorded_value=50.3585%
molecule="NS(=O)(=O)c1ccc(NC(=O)c2ccc(N3C(=O)CCC3=O)cc2)cc1 [KU0025331]" recorded_value=17.6449%
molecule="CC(C)(C)c1cc(C(=O)C(C#N)=NNc2cccc(Cl)c2)no1 [Molecule 98]" recorded_value=31.7551%
molecule="Cc1nc(/N=N/c2ccc(C(=O)[O-])cc2)c(COP(=O)([O-])[O-])c(C=O)c1O.[Na+].[Na+].[Na+] [KU0261395]" recorded_value=75.1682%
molecule="CC(=O)Nc1cc(C(=O)NC(C)C)c2ccc(C)nc2c1 [KU0206312]" recorded_value=7.573%
molecule="O=C(Cn1ccc2c(=O)[nH]ccc21)Nc1ccc(Cl)cc1 [Molecule 36, O=C(Cn1ccc2c1cc[nH]c2=O)Nc1ccc(cc1)Cl]" recorded_value=22.3776%

* * *

biological target: P. falciparum apicoplast DNA polymerase (Pf-apPOL) (Plasmodium falciparum); assay: Fluorescence-based high-throughput DNA polymerase assay (molecular beacon), primary screen and dose-response; assay type: biochemical; conditions: DRC-2; 40'; concentration 2.5
observation_type: % inhibition Apol 40' (%)

line_notation=COCCN(CCOC)Cc1c(O)ccc2c1OC(=Cc1cc(Br)ccc1OC)C2=O measurement_unit=% recorded_value=10
line_notation=O=C(O)CCS(=O)(=O)c1ccc(-c2ccc(S(=O)(=O)CCC(=O)O)cc2)cc1 measurement_unit=% recorded_value=10
line_notation=O=C1c2ccccc2C(=O)c2c1oc1c3c(ccc21)OCN(C1CCCC1)C3 measurement_unit=% recorded_value=17
line_notation=O=C1NCCCn2cc(S(=O)(=O)Nc3ccccc3)cc21 measurement_unit=% recorded_value=7
line_notation=O=C(O)c1ccc(-c2nc3cc(-c4ccc5nc(-c6ccc(C(=O)O)cc6)[nH]c5c4)ccc3[nH]2)cc1 measurement_unit=% recorded_value=30

* * *

In this section, each of the molecules is paired with its reported % inhibition Apo pol 10'.
biological target: UniProtKB Q8ILY1; test: Fluorescence-based high-throughput DNA polymerase assay (molecular beacon), primary screen and dose-response; type: biochemical; conditions: DRC-1; 10'; concentration 40
observation_type: % inhibition Apo pol 10' (%)

line_notation=O=[N+]([O-])c1cc2c(cc1CN1CCN(c3cccc(Cl)c3)CC1)OCO2 observation_type="% inhibition Apo pol 10'" recorded_value=81.6045
line_notation=COCC(=O)Nc1c(-c2cccc(F)c2)nc2cc(C)ccn12 observation_type="% inhibition Apo pol 10'" recorded_value=80.2368
line_notation=O=[N+]([O-])/C=C/c1ccc(-c2ccc(Br)cc2)o1 observation_type="% inhibition Apo pol 10'" recorded_value=80.1629
